So I've got a bunch of molecules here, and I need their ED50 values.
Tested on: ddy male mouse
Assay: Anti-arrhythmic effect: prevention of chloroform-induced ventricular flutter and fibrillation
Assay type: in vivo
Settings: ip, 0.5 h, intraperitoneal, chloroform inhalation after 30 minutes, mice, read-out: Anti-arrhythmic effect (ED50)
Please report the result as a number followed by the unit.

Given item CCC(C)NCC(O)COc1cccc2c1OS(=O)(=O)CC2 (centres unmarked) , the value recorded as its ED50 is 1.3 mg/kg

The measured ED50 associated with CC(C)(C)NCC(O)COc1cccc2c1OS(=O)(=O)CC2 (centres unmarked) reads 0.03 mg/kg

For reference, reported ED50 for CCCC(=O)Nc1ccc(OCC(O)CNC(C)C)c(C(C)=O)c1 (centres unmarked) [acebutolol, reference compound] stands at 47 mg/kg

Entry CC(C)(C)NCC(O)COc1cccc2c1CCC(=O)N2 (centres unmarked) [carteolol, reference compound] , ED50 reported as 400 mg/kg

The recorded ED50 for entry CC(C)NCC(O)COc1cccc2c1OS(=O)(=O)CC2 (centres unmarked) equals 0.23 mg/kg

====

Test system: β-Receptor
Assay: β-receptor blocking effect: 3H-dihydroalprenolol binding to synaptosome membrane of rat brain
Conditions: 10^-5 mole test compound, 10 µM
Quick rule for you: β-Receptor blocking effect Inhibition (%) under 90% gets condition met, anything else gets condition not met.

Consider CNCC(O)COc1cccc2c1OS(=O)(=O)CC2 (stereo not shown) . Does its β-Receptor blocking effect Inhibition (%) lie strictly below 90%? condition met

Identify whether the compound CCC(C)NCC(O)COc1cccc2c1OS(=O)(=O)CC2 (stereo not shown) records β-Receptor blocking effect Inhibition (%) below 90%. condition not met

# TODO verify β-Receptor blocking effect Inhibition (%) < 90% strictly for this compound: CC(C)CNCC(O)COc1cccc2c1OS(=O)(=O)CC2 (stereo not shown) condition met

Is β-Receptor blocking effect Inhibition (%) strictly under 90% for the entry CN(C)CC(O)COc1cccc2c1OS(=O)(=O)CC2 (stereo not shown) ? condition met

====

System: β-Receptor
Experiment: β-receptor blocking effect: 3H-dihydroalprenolol binding to synaptosome membrane of rat brain
Details: 10^-6 mole test compound, 1 µM
Measurement Type: β-Receptor blocking effect Inhibition (%)
Just the number please, in %, no unit attached.

// β-Receptor blocking effect Inhibition (%) lookup, molecule = CNCC(O)COc1cccc2c1OS(=O)(=O)CC2 (stereo not shown) [Example 1] , result: 35.4

Field β-Receptor blocking effect Inhibition (%) (entry CC(C)(C)NCC(O)COc1cccc2c1OS(=O)(=O)CC2 (stereo not shown) [Example 4] ) reads 96.3

# β-Receptor blocking effect Inhibition (%) (molecule: CC(C)NCC(O)COc1cccc2c1OS(=O)(=O)CC2 (stereo not shown) [Example 3] ) is 97.6

Record CN(C)CC(O)COc1cccc2c1OS(=O)(=O)CC2 (stereo not shown) [Example 2] . Reported β-Receptor blocking effect Inhibition (%): 17.1

Lookup result for CC(C)CNCC(O)COc1cccc2c1OS(=O)(=O)CC2 (stereo not shown) [Example 6] ; measured β-Receptor blocking effect Inhibition (%): 41.7

Given item CCC(C)NCC(O)COc1cccc2c1OS(=O)(=O)CC2 (stereo not shown) [Example 5] , the value recorded as its β-Receptor blocking effect Inhibition (%) is 83.0

// sample COc1ccc(CCNCC(O)COc2cccc3c2OS(=O)(=O)CC3)cc1OC (stereo not shown) [Example 7] , its β-Receptor blocking effect Inhibition (%) was 75.2
